test: activity coefficient (dimensionless); of the first substance listed, at infinite dilution; xn = mol fraction of the nth substance listed; details: 373.15 K; 101 kPa; Liquid; Chromatography; x1 = 0
attribute.measured: activity coefficient
Give the value as a plain number.

query: Requested read-out: activity coefficient. Entry: CCC(C)CC(C)C (configuration not stated) [2,4-dimethylhexane] + CCCCCCCCCCCCCCCCCCC(CCCCCCCCCCCCCCCCCC)CCCCC(CCCCCCCCCCCCCCCCCC)CCCCCCCCCCCCCCCCCC
result: 0.394

query: Requested read-out: activity coefficient. Entry: CCCCCCCCCCCCC [tridecane] + CCCCCCCCCCCCCCCCCCC(CCCCCCCCCCCCCCCCCC)CCCCC(CCCCCCCCCCCCCCCCCC)CCCCCCCCCCCCCCCCCC
result: 0.479

query: Requested read-out: activity coefficient. Entry: CCCc1ccccc1 [propylbenzene] + CCCCCCCCCCCCCCCCCCC(CCCCCCCCCCCCCCCCCC)CCCCC(CCCCCCCCCCCCCCCCCC)CCCCCCCCCCCCCCCCCC
result: 0.336

query: Requested read-out: activity coefficient. Entry: C1CCC2CCCC2C1 (configuration not stated) [1H-indene, octahydro-] + CCCCCCCCCCCCCCCCCCC(CCCCCCCCCCCCCCCCCC)CCCCC(CCCCCCCCCCCCCCCCCC)CCCCCCCCCCCCCCCCCC
result: 0.26

query: Requested read-out: activity coefficient. Entry: C=CCCCCCCC [1-nonene] + CCCCCCCCCCCCCCCCCCC(CCCCCCCCCCCCCCCCCC)CCCCC(CCCCCCCCCCCCCCCCCC)CCCCCCCCCCCCCCCCCC
result: 0.392

query: Requested read-out: activity coefficient. Entry: CC(C)CC(C)(C)C [2,2,4-trimethylpentane] + CCCCCCCCCCCCCCCCCCC(CCCCCCCCCCCCCCCCCC)CCCCC(CCCCCCCCCCCCCCCCCC)CCCCCCCCCCCCCCCCCC
result: 0.397

query: Requested read-out: activity coefficient. Entry: C1=CCCC=C1 [1,3-cyclohexadiene] + CCCCCCCCCCCCCCCCCCC(CCCCCCCCCCCCCCCCCC)CCCCC(CCCCCCCCCCCCCCCCCC)CCCCCCCCCCCCCCCCCC
result: 0.251

query: Requested read-out: activity coefficient. Entry: CCc1ccccc1 [ethylbenzene] + CCCCCCCCCCCCCCCCCCC(CCCCCCCCCCCCCCCCCC)CCCCC(CCCCCCCCCCCCCCCCCC)CCCCCCCCCCCCCCCCCC
result: 0.314

query: Requested read-out: activity coefficient. Entry: CCCCCCCCCCCCCC [tetradecane] + CCCCCCCCCCCCCCCCCCC(CCCCCCCCCCCCCCCCCC)CCCCC(CCCCCCCCCCCCCCCCCC)CCCCCCCCCCCCCCCCCC
result: 0.492

query: Requested read-out: activity coefficient. Entry: c1ccc2ccccc2c1 [naphthalene] + CCCCCCCCCCCCCCCCCCC(CCCCCCCCCCCCCCCCCC)CCCCC(CCCCCCCCCCCCCCCCCC)CCCCCCCCCCCCCCCCCC
result: 0.384

query: Requested read-out: activity coefficient. Entry: Cc1ccccc1 [toluene] + CCCCCCCCCCCCCCCCCCC(CCCCCCCCCCCCCCCCCC)CCCCC(CCCCCCCCCCCCCCCCCC)CCCCCCCCCCCCCCCCCC
result: 0.284

query: Requested read-out: activity coefficient. Entry: C1CCCCC1 [cyclohexane] + CCCCCCCCCCCCCCCCCCC(CCCCCCCCCCCCCCCCCC)CCCCC(CCCCCCCCCCCCCCCCCC)CCCCCCCCCCCCCCCCCC
result: 0.25

query: Requested read-out: activity coefficient. Entry: C=CCCCCCCCCCC [1-dodecene] + CCCCCCCCCCCCCCCCCCC(CCCCCCCCCCCCCCCCCC)CCCCC(CCCCCCCCCCCCCCCCCC)CCCCCCCCCCCCCCCCCC
result: 0.447

query: Requested read-out: activity coefficient. Entry: C#CCCCC [1-hexyne] + CCCCCCCCCCCCCCCCCCC(CCCCCCCCCCCCCCCCCC)CCCCC(CCCCCCCCCCCCCCCCCC)CCCCCCCCCCCCCCCCCC
result: 0.39

query: Requested read-out: activity coefficient. Entry: C1CCCCCCC1 [cyclooctane] + CCCCCCCCCCCCCCCCCCC(CCCCCCCCCCCCCCCCCC)CCCCC(CCCCCCCCCCCCCCCCCC)CCCCCCCCCCCCCCCCCC
result: 0.258

query: Requested read-out: activity coefficient. Entry: CCCC#CCCC [4-octyne] + CCCCCCCCCCCCCCCCCCC(CCCCCCCCCCCCCCCCCC)CCCCC(CCCCCCCCCCCCCCCCCC)CCCCCCCCCCCCCCCCCC
result: 0.436

query: Requested read-out: activity coefficient. Entry: CC(C)CC(C)C [2,4-dimethylpentane] + CCCCCCCCCCCCCCCCCCC(CCCCCCCCCCCCCCCCCC)CCCCC(CCCCCCCCCCCCCCCCCC)CCCCCCCCCCCCCCCCCC
result: 0.391

query: Requested read-out: activity coefficient. Entry: C=CCCCCC [1-heptene] + CCCCCCCCCCCCCCCCCCC(CCCCCCCCCCCCCCCCCC)CCCCC(CCCCCCCCCCCCCCCCCC)CCCCCCCCCCCCCCCCCC
result: 0.354

query: Requested read-out: activity coefficient. Entry: C1CC[C@H]2CCCC[C@@H]2C1 [trans-decahydronaphthalene] + CCCCCCCCCCCCCCCCCCC(CCCCCCCCCCCCCCCCCC)CCCCC(CCCCCCCCCCCCCCCCCC)CCCCCCCCCCCCCCCCCC
result: 0.268

query: Requested read-out: activity coefficient. Entry: CC1CCCCC1 [methylcyclohexane] + CCCCCCCCCCCCCCCCCCC(CCCCCCCCCCCCCCCCCC)CCCCC(CCCCCCCCCCCCCCCCCC)CCCCCCCCCCCCCCCCCC
result: 0.267

query: Requested read-out: activity coefficient. Entry: CCCCCCCCCC [decane] + CCCCCCCCCCCCCCCCCCC(CCCCCCCCCCCCCCCCCC)CCCCC(CCCCCCCCCCCCCCCCCC)CCCCCCCCCCCCCCCCCC
result: 0.418

query: Requested read-out: activity coefficient. Entry: CCCCCc1ccccc1 [pentylbenzene] + CCCCCCCCCCCCCCCCCCC(CCCCCCCCCCCCCCCCCC)CCCCC(CCCCCCCCCCCCCCCCCC)CCCCCCCCCCCCCCCCCC
result: 0.378
